- Test system: Pasteurella multocida
- Protocol Text: Effective dose required to inhibit Pasteurella multocida infection model in mouse by subcutaneous administration
- Type: functional
- Condition Description: Pasteurella multocida, sc; read-out: ED50
Value Type: ED50
Write the numeric value and append its unit.

{"Smiles Data": "CC[C@H]1OC(=O)[C@H](C)[C@@H](O[C@H]2C[C@@](C)(OC)[C@@](O)(Cn3ccnc3)[C@H](C)O2)[C@H](C)[C@@H](O[C@@H]2O[C@H](C)C[C@H](N(C)C)[C@H]2O)[C@](C)(O)C[C@@H](C)CN[C@H](C)[C@@H](O)[C@]1(C)O", "Tested System": "Pasteurella multocida", "ED50": "20 mg/kg"}

**Query** // query ED50 value for entry CC[C@H]1OC(=O)[C@H](C)[C@@H](O[C@H]2C[C@@](C)(OC)[C@@](O)(CNCC(F)(F)F)[C@H](C)O2)[C@H](C)[C@@H](O[C@@H]2O[C@H](C)C[C@H](N(C)C)[C@H]2O)[C@](C)(O)C[C@@H](C)CN[C@H](C)[C@@H](O)[C@]1(C)O
**Result** 46 mg/kg

All figures here come from ChEMBL document CHEMBL1135354.
